- Tested on: MOLT-4 leukemia
- assay notes: NCI-60 one-dose screen, 48 h
- measurement context: 10 µM unless noted
- Experimental: Growth inhibition of the MOLT-4 human tumor cell line is measured as a screen for anti-cancer activity. Cells are grown in 96 well plates and exposed to the test compound for 48 hours. Compounds are tested at a single concentration, which is 10^-5 M for most compounds. The reported endpoint is percent growth (GI% or GIPRCNT), where numbers from 0 - 100% represent growth inhibition, and numbers from -100% - 0 represent cell death. For example, a value of 40 represents 60% growth inhibition. […]
Compounds without any hit were thinned out: in the full panel of roughly 83,000, 20% have a hit. Activity calls are given as the source filed them. Rule for the calls: active = growth percent below 10; inactive = the rest.
Labels: YES = active, NO = inactive

1) CCCC(=O)OCC1OC(n2cnc3c(=S)nc(N)[nH]c32)C(OC(=O)CCC)C1OC(=O)CCC (stereo unspecified) = YES
2) Cc1nc2cc(-c3nn(C(C)C)c4ncnc(N)c34)ccc2o1 = YES
3) CCCS(=O)(=O)Nc1ccc(F)c(C(=O)c2c[nH]c3ncc(-c4ccc(Cl)cc4)cc23)c1F = NO
4) Cc1sc2c(c1C)c(=O)nc1c(-c3nc4ccccc4s3)n[nH]n12 = NO
5) CCCCCCCCCNCCCCCCCCC = NO
6) CC(C)c1cc(CNc2nc(Nc3cc(C4CC4)[nH]n3)cc(N3CCN(C)CC3)n2)on1 = YES

----------
- Test system: SN12C renal
- assay notes: NCI-60 one-dose screen, 48 h
- measurement context: 10 µM unless noted
About 83,000 compounds went through this panel and 20% of them were active in at least one assay; those are over-represented in the sample as a whole. The source made the active and inactive calls. Rule for the calls: active = growth percent below 10; inactive = the rest.
Outcome codes: active, inactive

1. CC(C)OP(=O)(CCC(=O)c1c[nH]c2ccccc12)OC(C)C = inactive
2. COC(=O)[C@]12CC[C@@H](C)[C@H](C)[C@@H]1C1=CC[C@@H]3[C@@]4(C)C[C@@H](OC(=O)/C=C/c5ccccc5)[C@H](O)[C@@](C)(CO)[C@@H]4[C@H](O)C[C@@]3(C)[C@]1(C)CC2 = active
3. Cn1cnc(-c2cc3nccc(Oc4ccc(NC(=S)NC(=O)Cc5ccccc5)cc4F)c3s2)c1 = inactive
4. NC(=O)c1c(OCc2c(F)cc(Br)cc2F)nsc1NC(=O)NCCCCN1CCCC1 = active
5. Cn1c(Nc2ccc(C(F)(F)F)cc2)nc2cc(Oc3ccnc(-c4ncc(C(F)(F)F)[nH]4)c3)ccc21 = inactive
6. CN1[C@@H]2CC[C@H]1/C(=C\c1ccccc1)C1=C2[C@@H](c2ccccc2)C(C#N)=C(N)O1 = inactive
7. COc1cc2c(cc1O)c(=O)n(CCN(C)C)c1c3cc4c(cc3ncc21)OCO4 = active
8. CCN(CC)CCCC(C)Nc1cc(-c2ccc(C(F)(F)F)cc2)c(C#N)c2nc3ccccc3n12 (configuration not stated) = active
9. N#Cc1c(-c2ccc(Cl)cc2)csc1NC(=O)Nc1cccc(C(F)(F)F)c1 = active
10. CN(C)C1CCN(C(=O)c2ccc(NC(=O)Nc3ccc(-c4nc(N5CCOCC5)nc(N5CCOCC5)n4)cc3)cc2)CC1 = active
11. Clc1nc(Cl)c2ncn(CC#CCn3cnc4c(Cl)nc(Cl)nc43)c2n1 = active
12. CCCNC(=O)c1cn2ncnc(Nc3cc(C(=O)NC4CC4)ccc3C)c2c1C = inactive
13. CC/C=C\C[C@H]1C/C=C2/C(=O)C=C[C@@H]2C/C=C\CCCC(=O)O1 = active
14. C=CCCCC(=O)CCC(=O)OCC1O[C@@H](O[C@@H]2C(O)[C@@H](OC(C)=O)C(C)O[C@H]2O[C@H](CC=C)CCCCC)C(O)[C@@H](OC(=O)/C(C)=C/C)[C@@H]1OC(=O)/C=C/c1ccccc1 (some centres not stated) = active
15. CC(C)CC(=O)Nc1n[nH]c2c1CN(C(=O)C1CCN(C)CC1)C2(C)C = inactive
16. COc1ccc(-c2cnc(-c3ccc(Cl)cc3)[nH]2)cc1OC = inactive
17. Cc1oc2c(C(=O)N/N=C\c3ccc(O)cc3O)c[nH]c2c1C = inactive

----------
- Tested on: COLO 205 colon
- assay notes: NCI-60 one-dose screen, 48 h
- measurement context: 10 µM unless noted
This is part of a sample that, as a whole, favours compounds with a hit. Of some 83,000 tested, about 20% had one in any assay. The source made the active and inactive calls. The calls were made as follows: active = growth percent below 10; inactive = the rest.
Outcomes: active, inactive

1) Cc1ccsc1C(NC(=O)c1ccccc1)c1cc(Cl)c2cccnc2c1O (stereo not drawn) = inactive
2) CC(C)Nc1cc(-c2c[nH]c(C(=O)N[C@H](CO)c3cccc(Cl)c3)c2)c(Cl)cn1 = active
3) COc1cc(C2CC(c3ccc(Cl)cc3)=NN2c2ccc(Cl)cc2)cc(OC)c1OC (stereo not drawn) = inactive

----------
- Tested on: 786-0 renal
- assay notes: NCI-60 one-dose screen, 48 h (100 = growth as untreated, 0 = no growth, -100 = all killed)
- measurement context: 10 µM unless noted
Compounds without any hit were thinned out: in the full panel of roughly 83,000, 20% have a hit. Calls of active or inactive are those of the source. The calls were made as follows: active = growth percent below 10; inactive = the rest.
property name: growth

1) C=CC(=O)Nc1cc2c(Nc3ccc(F)c(Cl)c3)ncnc2cc1C#CC(C)(C)N1CCN(C)CC1 = -96.3% (active)
2) C[C@]12O[C@H](C[C@]1(O)CO)n1c3ccccc3c3c4c(c5c6ccccc6n2c5c31)CNC4=O = -87.5% (active)
3) Cc1[nH]n(C(N)=S)c(=O)c1N=Nc1ccc(S(=O)(=O)Nc2ccncn2)cc1 = 103% (inactive)
4) Nc1cc2c(cc1Br)-c1c(C(=O)O)cccc1C2O (centres undefined) = 98.8% (inactive)
5) Cc1ccc(-n2nc(C(C)(C)C)cc2NC(=O)NCc2cc(F)ccc2Oc2ccc3c(cnn3CCO)c2)cc1 = 29.1% (inactive)
6) CCCCCCCC(=O)SCC/C=C/[C@@H]1CC(=O)NCc2nc(co2)C2=N[C@@](C)(CS2)C(=O)N[C@@H](C(C)C)C(=O)O1 = 10.2% (inactive)
7) COc1cc2c(cc1OCCCCCCN1CCN(c3ncnc4ccccc34)CC1)N=CC1CCCN1C2=O (centres undefined) = -10.3% (active)
8) C/C=C/C=N/NC(=S)Nc1ccccc1 = 106% (inactive)
9) CCCCCCCC(=O)SCC/C=C/[C@@H]1CC(=O)NCc2cccc(n2)C2=N[C@@](C)(CS2)C(=O)N[C@@H](C(C)C)C(=O)N1 = 54% (inactive)
10) CC[n+]1c(/C=C/C=C2\N(C)c3ccccc3C2(C)C)sc2ccccc21 = 14.8% (inactive)
11) CC(=O)c1cnc2ccc(-c3cc(Cl)c(O)c(Cl)c3)nc2c1NC1CCC(CN(C)C)CC1 (centres undefined) = -48.3% [2.5 µM] (active)
12) N#Cc1cc2[nH]c3ccc(OC(F)(F)F)cc3c2oc1=O = 93.9% (inactive)
13) CC(C)c1ccc(/C=N/Nc2nc3ccccc3s2)cc1 = 108% (inactive)
14) CC1(C=O)NC(=O)NC1=O (centres undefined) = 104% (inactive)
15) CNC(=O)CN1CCC(Oc2cc3c(Nc4cccc(Cl)c4F)ncnc3cc2OC)CC1 = 51.8% (inactive)
16) O=C1NC(=O)/C(=C/c2ccc3nccc(-c4ccncc4)c3c2)S1 = -41.6% (active)
17) O=C(N/N=C/c1ccc(Cl)cc1)c1cc(-c2cc3ccccc3o2)nn1-c1ccccc1 = 95.1% (inactive)
18) CS(=O)(=O)N1CCN(Cc2cc3nc(-c4cccc5[nH]ncc45)nc(N4CCOCC4)c3s2)CC1 = -7.35% (active)
19) CCCCCCCC(=O)SCC/C=C/[C@@H]1CC(=O)NCc2cc(ccn2)C2=N[C@@](C)(CS2)C(=O)N[C@@H](C(C)C)C(=O)O1 = 12% (inactive)

----------
Parameter: growth. Scope: all listed entries.
- Tested on: T-47D breast
- assay notes: NCI-60 one-dose screen, 48 h (100 = growth as untreated, 0 = no growth, -100 = all killed)
- measurement context: 10 µM unless noted
About 83,000 compounds went through this panel and 20% of them were active in at least one assay; those are over-represented in the sample as a whole.
property name: growth (%)

1. C=CC(=O)Nc1cccc(Nc2nc(Nc3ccc(N4CCN(C(C)=O)CC4)cc3OC)ncc2C(F)(F)F)c1 = -5.01
2. COc1cc2nccc(Oc3ccc(NC(=O)C4(C(=O)Nc5ccc(F)cc5)CC4)cc3)c2cc1OC = -14
3. CO[C@H]1C[C@@H]2CC[C@@H](C)[C@@](O)(O2)C(=O)C(=O)N2CCCC[C@H]2C(=O)O[C@H]([C@H](C)C[C@@H]2CC[C@@H](OC(=O)C(C)(CO)CO)[C@H](OC)C2)CC(=O)[C@H](C)/C=C(\C)[C@@H](O)[C@@H](OC)C(=O)[C@H](C)C[C@H](C)\C=C/C=C/C=C/1C = -6.15
